All values here come from patent US6608069B1.

- Tested on: cytokine-stimulated human umbilical vein endothelial cells
- assay-remarks: Cell Adhesion Assay: adherence of fluorescently-labelled leukocytes to endothelial cell monolayers
- Type: cell-based
- setup-conditions: inhibition of cytokine-stimulated adhesion minus basal adhesion; calcein-AM labelled leukocytes on HUVEC monolayers; Hydrochloride
Where a name gives a salt, the structure may show the parent alone.
parameter-measured: IC50 (nM)
Return type: number; implicit unit nM.

What value of IC50 has been recorded for this entry: COCCOCCOCCOCCOCCOCCOCCNCc1ccc(-c2nc3c(=O)n(CC4CCCCC4)c(=O)n(CC4CCCCC4)c3[nH]2)cc1 [Example 107, Hydrochloride]
39

###

parameter-measured: melting point

What value of melting point has been recorded for this entry: O=C(O)/C=C/c1cccc(-c2nc3c(=O)n(Cc4ccccc4)c(=O)n(Cc4ccccc4)c3[nH]2)c1 (hydrate or solvate)
> 350 °C

What value of melting point has been recorded for this entry: CCCn1c(=O)c2nc(-c3ccc(/C=C/C(=O)O)cc3)[nH]c2n(CCC)c1=O
> 300 °C

What value of melting point has been recorded for this entry: O=C(O)/C=C/c1cccc(-c2nc3c(=O)n(CC4CCCCC4)c(=O)n(CC4CCCCC4)c3[nH]2)c1 (hydrate or solvate)
> 350 °C

What value of melting point has been recorded for this entry: O=C(O)/C=C/c1ccc(-c2nc3c(=O)n(Cc4cccc(F)c4)c(=O)n(Cc4cccc(F)c4)c3[nH]2)cc1
> 300 °C

What value of melting point has been recorded for this entry: O=C(O)/C=C/c1ccc(-c2nc3c(=O)n(CC4CCCCCC4)c(=O)n(CC4CCCCCC4)c3[nH]2)cc1 (hydrate or solvate)
> 250 °C

What value of melting point has been recorded for this entry: O=C(O)/C=C/c1ccc(-c2nc3c(=O)n(CC4CCC4)c(=O)n(CC4CCC4)c3[nH]2)cc1 (hydrate or solvate)
> 300 °C

What value of melting point has been recorded for this entry: O=C(O)/C=C/c1ccc(-c2nc3c(=O)n(CC4CC5CCC4C5)c(=O)n(CC4CC5CCC4C5)c3[nH]2)cc1 (stereo not shown)
> 250 °C
